targetOrTestSystem: human Cav3.2 channel (Homo sapiens, UniProt O95180)
Sequence (O95180 whole entry): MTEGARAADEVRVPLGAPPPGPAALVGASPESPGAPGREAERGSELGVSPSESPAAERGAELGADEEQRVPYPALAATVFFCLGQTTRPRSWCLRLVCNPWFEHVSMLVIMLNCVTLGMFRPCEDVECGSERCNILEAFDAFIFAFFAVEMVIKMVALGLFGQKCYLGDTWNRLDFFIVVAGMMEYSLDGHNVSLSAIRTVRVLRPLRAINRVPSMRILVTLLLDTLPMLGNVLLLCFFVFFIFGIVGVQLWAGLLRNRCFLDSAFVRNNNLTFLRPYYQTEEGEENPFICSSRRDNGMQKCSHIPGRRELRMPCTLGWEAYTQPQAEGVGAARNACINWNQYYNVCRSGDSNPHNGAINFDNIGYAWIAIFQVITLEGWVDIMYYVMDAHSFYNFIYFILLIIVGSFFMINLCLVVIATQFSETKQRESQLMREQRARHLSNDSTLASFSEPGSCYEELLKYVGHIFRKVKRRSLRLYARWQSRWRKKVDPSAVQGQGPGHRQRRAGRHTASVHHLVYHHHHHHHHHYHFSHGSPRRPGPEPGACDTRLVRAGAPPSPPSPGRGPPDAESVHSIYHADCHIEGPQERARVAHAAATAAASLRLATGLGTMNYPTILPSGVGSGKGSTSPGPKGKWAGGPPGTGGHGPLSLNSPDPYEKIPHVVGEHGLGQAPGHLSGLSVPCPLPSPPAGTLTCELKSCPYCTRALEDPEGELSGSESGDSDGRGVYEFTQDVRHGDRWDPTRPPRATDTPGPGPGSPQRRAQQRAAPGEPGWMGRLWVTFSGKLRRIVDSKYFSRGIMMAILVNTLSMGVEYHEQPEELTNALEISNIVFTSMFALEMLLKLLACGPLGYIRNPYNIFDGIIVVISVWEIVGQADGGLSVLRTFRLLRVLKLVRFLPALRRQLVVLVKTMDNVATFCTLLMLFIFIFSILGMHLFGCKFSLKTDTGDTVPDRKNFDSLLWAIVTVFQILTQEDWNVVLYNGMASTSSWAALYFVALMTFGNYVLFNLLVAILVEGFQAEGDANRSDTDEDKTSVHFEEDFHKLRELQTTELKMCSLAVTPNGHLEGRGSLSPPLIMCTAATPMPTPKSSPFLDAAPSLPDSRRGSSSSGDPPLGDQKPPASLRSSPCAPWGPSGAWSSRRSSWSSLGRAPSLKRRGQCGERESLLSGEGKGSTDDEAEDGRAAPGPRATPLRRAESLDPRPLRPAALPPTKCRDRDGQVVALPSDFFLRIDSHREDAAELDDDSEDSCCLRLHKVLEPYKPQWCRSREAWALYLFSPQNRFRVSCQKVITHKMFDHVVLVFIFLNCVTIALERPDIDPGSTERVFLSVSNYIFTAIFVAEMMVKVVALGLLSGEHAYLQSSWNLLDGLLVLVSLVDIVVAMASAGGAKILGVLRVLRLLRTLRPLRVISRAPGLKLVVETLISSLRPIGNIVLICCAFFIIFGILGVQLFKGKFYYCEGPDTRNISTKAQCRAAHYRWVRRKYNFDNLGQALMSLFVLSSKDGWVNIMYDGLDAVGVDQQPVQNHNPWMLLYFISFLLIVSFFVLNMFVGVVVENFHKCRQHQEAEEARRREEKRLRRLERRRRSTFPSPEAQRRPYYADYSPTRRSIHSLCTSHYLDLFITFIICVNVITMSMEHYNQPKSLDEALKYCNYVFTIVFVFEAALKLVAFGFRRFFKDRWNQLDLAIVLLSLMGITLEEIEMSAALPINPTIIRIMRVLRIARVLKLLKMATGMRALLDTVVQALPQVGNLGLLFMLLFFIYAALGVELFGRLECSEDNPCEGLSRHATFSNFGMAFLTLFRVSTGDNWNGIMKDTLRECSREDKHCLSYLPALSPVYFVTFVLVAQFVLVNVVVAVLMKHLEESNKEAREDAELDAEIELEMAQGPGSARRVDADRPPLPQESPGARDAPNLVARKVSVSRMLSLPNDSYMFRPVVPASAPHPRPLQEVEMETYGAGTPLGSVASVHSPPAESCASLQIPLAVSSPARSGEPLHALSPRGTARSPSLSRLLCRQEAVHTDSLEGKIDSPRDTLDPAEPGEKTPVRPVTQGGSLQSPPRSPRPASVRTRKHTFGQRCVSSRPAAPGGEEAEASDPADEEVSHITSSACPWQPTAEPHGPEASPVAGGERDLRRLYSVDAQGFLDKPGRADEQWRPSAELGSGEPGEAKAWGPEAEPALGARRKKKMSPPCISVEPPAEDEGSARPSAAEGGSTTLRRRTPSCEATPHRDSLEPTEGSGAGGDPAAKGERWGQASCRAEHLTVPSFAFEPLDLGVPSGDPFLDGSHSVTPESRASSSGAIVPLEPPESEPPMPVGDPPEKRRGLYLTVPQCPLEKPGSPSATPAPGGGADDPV
experimentNotes: Intracellular calcium concentration measurement in human Cav3.2 channel expressing stable cell line (Pharmacological Test 1)
testConditions: HEK293 cells stably expressing human Cav3.2, Fluo-4 AM fluorescence, KCl stimulation; read-out: Cav3.2 channel inhibitory action
pIC50: −log10 of the molar value. Structures can show the parent of a compound that is named as a salt.
# pIC50 listing for each entry below
readoutType: pIC50

>>> testresult("CC(C)N(C(=O)CNC(=O)[C@H]1C[C@@H]1c1nc2ccccc2[nH]1)c1ccc(C(F)(F)F)nc1")
"< 5.00"
>>> testresult("CC(NC(=O)C1CC1c1nc2ccccc2[nH]1)C(=O)NC1CCNCC1 (centres unmarked) [Example 12, hydrochloride]")
"5.00 to 6.00"
>>> testresult("O=C(NC1(C(=O)Nc2ccc(C(F)(F)F)cc2F)CC1)[C@H]1C[C@@H]1c1nc2ccccc2[nH]1")
"6.00 to 7.00"
>>> testresult("CCCc1ccc(NC(=O)C(C)NC(=O)C2CC2c2nc3ccccc3[nH]2)cc1 (single isomer, unassigned) [Example 2B]")
"< 5.00"
>>> testresult("CC(NC(=O)C1CC1c1nc2ccccc2[nH]1)C(=O)Nc1ccc(C(C)(C)C)cc1 (single isomer, unassigned) [Example 7B]")
"6.00 to 7.00"
>>> testresult("CCCc1ccc(NC(=O)C(C)NC(=O)C2CC2c2nc3ccccc3[nH]2)cc1 (single isomer, unassigned) [Example 2A]")
"6.00 to 7.00"
>>> testresult("CC(C)C[C@@H](NC(=O)[C@H]1C[C@@H]1c1nc2ccccc2[nH]1)C(=O)Nc1cccc(C(F)(F)F)c1")
"6.00 to 7.00"
>>> testresult("CC(NC(=O)C1CC1c1nc2ccccc2[nH]1)C(=O)NCc1ccc(C(F)(F)F)nc1 (centres unmarked)")
"5.00 to 6.00"
>>> testresult("CC(NC(=O)C1CC1c1nc2ccccc2[nH]1)C(=O)Nc1cnc(Br)cn1 (single isomer, unassigned) [Example 18B]")
"< 5.00"
>>> testresult("CC(C)Oc1ccc(NC(=O)C(C)NC(=O)C2CC2c2nc3ccccc3[nH]2)cc1 (centres unmarked)")
"5.00 to 6.00"
>>> testresult("O=C(NC1(C(=O)Nc2cc(Cl)cc(Cl)c2)CC1)[C@H]1C[C@@H]1c1nc2ccccc2[nH]1")
"6.00 to 7.00"
>>> testresult("O=C(NC1CCN(c2ccc(C(F)(F)F)cc2)C1=O)[C@H]1C[C@@H]1c1nc2ccccc2[nH]1 (single isomer, unassigned) [Example 23B]")
"6.00 to 7.00"
>>> testresult("O=C(NC1(C(=O)Nc2cc(F)cc(C(F)(F)F)c2)CC1)[C@H]1C[C@@H]1c1nc2ccccc2[nH]1")
"6.00 to 7.00"
>>> testresult("O=C(NC1(C(=O)Nc2cncc(C(F)(F)F)c2)CC1)[C@H]1C[C@@H]1c1nc2ccccc2[nH]1")
"5.00 to 6.00"

----------
targetOrTestSystem: human Cav3.2 channel (Homo sapiens, UniProt O95180)
experimentNotes: Intracellular calcium concentration measurement in human Cav3.2 channel expressing stable cell line (Pharmacological Test 1)
testConditions: HEK293 cells stably expressing human Cav3.2, Fluo-4 AM fluorescence, KCl stimulation; read-out: Cav3.2 channel inhibitory action
# IC50 listing for each entry below
readoutType: IC50

>>> testresult("COCC(NC(=O)[C@H]1C[C@@H]1c1nc2ccccc2[nH]1)C(=O)Nc1ccc(F)c(C(F)(F)F)c1 (single isomer, unassigned) [Example 32A]")
"0.1 to 1 µM"
>>> testresult("CC(NC(=O)C1CC1c1nc2ccccc2[nH]1)C(=O)Nc1ccc(C(C)(C)C)cc1 (single isomer, unassigned) [Example 7A]")
"0.1 to 1 µM"
>>> testresult("CC(NC(=O)C1CC1c1nc2ccccc2[nH]1)C(=O)Nc1ccc(C(F)(F)F)nc1 (single isomer, unassigned) [Example 5A]")
"0.1 to 1 µM"
>>> testresult("O=C(NC1(C(=O)Nc2cccc(C(F)(F)F)c2)CC1)[C@H]1C[C@@H]1c1nc2ccccc2[nH]1 [Example 22]")
"≤ 0.1 µM"
>>> testresult("COCC(NC(=O)[C@H]1C[C@@H]1c1nc2ccccc2[nH]1)C(=O)Nc1ccc(F)c(C(F)(F)F)c1 (single isomer, unassigned) [Example 32B]")
"0.1 to 1 µM"
>>> testresult("CC(NC(=O)C1CC1c1nc2ccccc2[nH]1)C(=O)NCc1ccc(C(F)(F)F)cc1 (stereo not shown) [Example 14]")
"0.1 to 1 µM"
>>> testresult("CC(NC(=O)C1CC1c1nc2ccccc2[nH]1)C(=O)N(C)c1ccc(C(F)(F)F)cc1 (single isomer, unassigned) [Example 8A]")
"0.1 to 1 µM"
>>> testresult("O=C(NC1CC(=O)N(c2ccc(C(F)(F)F)nc2)C1)[C@H]1C[C@@H]1c1nc2ccccc2[nH]1 (single isomer, unassigned) [Example 33B]")
"1 to 10 µM"
>>> testresult("CCn1c([C@H]2C[C@@H]2C(=O)NC2(C(=O)Nc3ccc(C(F)(F)F)nc3)CC2)nc2ccccc21 [Example 27]")
"≤ 0.1 µM"
>>> testresult("O=C(NC1(C(=O)Nc2cccc(C(F)(F)F)c2)CCC1)[C@H]1C[C@@H]1c1nc2ccccc2[nH]1 [Example 36]")
"≤ 0.1 µM"
>>> testresult("O=C(NC1(C(=O)Nc2ccc(C(F)(F)F)cc2)CC1)[C@@H]1C[C@H]1c1nc2ccccc2[nH]1 (relative stereo) [Example 21]")
"0.1 to 1 µM"
>>> testresult("O=C(NC1(C(=O)Nc2ccc(F)c(C(F)(F)F)c2)CC1)[C@H]1C[C@@H]1c1nc2ccccc2[nH]1 [Example 31]")
"≤ 0.1 µM"
>>> testresult("CC(NC(=O)C1CC1c1nc2ccccc2[nH]1)C(=O)NC1CN(C(=O)OC(C)(C)C)C1 (stereo not shown) [Example 10]")
"> 10 µM"
>>> testresult("CC(NC(=O)C1CC1c1nc2ccccc2[nH]1)C(=O)Nc1ccc(C(F)(F)F)cc1 (single isomer, unassigned) [Example 4B]")
"0.1 to 1 µM"
>>> testresult("O=C(NC1(C(=O)Nc2cccc(C(F)(F)F)c2)CC1)[C@H]1C[C@@H]1c1nc2ccccc2n1C1CC1 [Example 40]")
"≤ 0.1 µM"
>>> testresult("CC(NC(=O)C1CC1c1nc2ccccc2[nH]1)C(=O)Nc1cccc(C(F)(F)F)c1 (single isomer, unassigned) [Example 38B]")
"≤ 0.1 µM"
>>> testresult("O=C(NC1(C(=O)Nc2ccc(C(F)(F)F)cc2)CC1)[C@H]1C[C@@H]1c1nc2ccccc2[nH]1 [Example 26]")
"≤ 0.1 µM"
>>> testresult("O=C(Nc1ccc(C(F)(F)F)cc1)C1CCCN1C(=O)C1CC1c1nc2ccccc2[nH]1 (single isomer, unassigned) [Example 19A]")
"1 to 10 µM"
>>> testresult("O=C(Nc1ccc(C(F)(F)F)cc1)C1CCCN1C(=O)C1CC1c1nc2ccccc2[nH]1 (single isomer, unassigned) [Example 19B]")
"1 to 10 µM"
>>> testresult("CC(NC(=O)C1CC1c1nc2ccccc2[nH]1)C(=O)Nc1ccc(C#N)cc1 (single isomer, unassigned) [Example 6A]")
"1 to 10 µM"
>>> testresult("CCCc1ccc(NC(=O)C(C)NC(=O)C2CC2c2nc3ccccc3[nH]2)cc1 (single isomer, unassigned) [Example 1B]")
"0.1 to 1 µM"
>>> testresult("CC(NC(=O)C1CC1c1nc2ccccc2[nH]1)C(=O)Nc1ccc(Cl)cc1 (single isomer, unassigned) [Example 16A]")
"0.1 to 1 µM"

----------
# inhibition at 0.3 µM listing for each entry below
targetOrTestSystem: human Cav3.2 channel (Homo sapiens)
Construct: expressed in transfected cells
experimentNotes: Electrophysiological evaluation, automated whole-cell patch clamp of Cav3.2 channel current (Pharmacological Test 2)
Assay type: cell-based
testConditions: 0.3 μM test compound, holding potential −80 mV, depolarization to −20 mV; read-out: Cav3.2 channel current inhibition rate in test compound of 0.3 μM (holding potential of −80 mV) (%)
Protocol: The human Cav3.2 channel expressing stable cell line prepared by the test method (1) of Example 36 was seeded in a 10-cm dish using a DMEM medium containing 10% FBS, followed by culturing 37° C. for 24 hours under a 5% CO2 condition. […] A Cav3.2 channel current was measured using an automated patch clamp system (Port-a-Patch; Nanion Technologies, EPC-10; HEKA Elektronik GmbH, Patchmaster; HEKA Elektronik GmbH) and buffers shown below, by a whole-cell patch-clamp method. […]
readoutType: inhibition at 0.3 µM (%)

>>> testresult("CC(NC(=O)C1CC1c1nc2ccccc2[nH]1)C(=O)Nc1ccc(C(F)(F)F)nc1 (single isomer, unassigned)")
74
>>> testresult("O=C(CNC(=O)[C@@H]1C[C@H]1c1nc2ccccc2[nH]1)Nc1ccc(C(F)(F)F)cc1 (relative stereo)")
39
>>> testresult("O=C(NC1(C(=O)Nc2ccc(C(F)(F)F)cc2)CC1)[C@@H]1C[C@H]1c1nc2ccccc2[nH]1 (relative stereo)")
51
>>> testresult("O=C(NC1(C(=O)Nc2ccc(OC(F)(F)F)cc2)CC1)[C@H]1C[C@@H]1c1nc2ccccc2[nH]1")
68

Reference for the values: patent US11370761B2
